Test system: SW-620 colon
measurement_notes: NCI tumour cell line growth inhibition, 48 h
measured_endpoint: TGI

Data request, read-out TGI, for NCCCn1c2ccccc2c2c3c(c4c(c21)CCC(O)CC4)C(=O)NC3=O (stereo unspecified)
5.19 µM

Data request, read-out TGI, for "O=C(Nc1nc2ccccc2n1Cc1ccccc1)NC12CC3CC(CC(C3)C1)C2"
> 100 µM

Data request, read-out TGI, for "C=C1C(=O)O[C@H]2[C@H]1CC/C(COC(=O)NCc1ccc(Cn3c(=O)sn(CCCCl)c3=O)cc1)=C\CC[C@@]1(C)O[C@@H]21"
3.31 µM

Data request, read-out TGI, for Cn1c(C(C#N)c2nc(Cl)ncc2Br)nc2ccccc21 (stereo unspecified)
> 100 µM

Data request, read-out TGI, for "NC(=O)N/N=C/C(/C=N/NC(N)=O)[N+](=O)[O-]"
> 100 µM

Data request, read-out TGI, for O=C(NCCC(F)(F)C(F)(F)C(F)(F)C(F)(F)F)NC1OC(CO)C(O)C(O)C1O (stereo unspecified)
> 100 µM

Data request, read-out TGI, for "Nc1nnc2cc(Cl)ccc2n1"
> 100 µM

Data request, read-out TGI, for COC(=O)C(C)(N=Cc1ccccc1)c1ccccc1 (stereo unspecified)
> 100 µM

Data request, read-out TGI, for COC1OC(CO)C(O)C(O)C1Br (stereo unspecified)
> 100 µM

Data request, read-out TGI, for "O=C1CSc2nc3ccccc3n2/C=N\N1"
> 100 µM

Data request, read-out TGI, for COc1ccc2cc1Oc1ccc(cc1)C(Sc1ccccc1)CCOC(=O)CC2 (stereo unspecified)
> 100 µM

Entry source: PubChem BioAssay (NCI)
